tested on: Septoria tritici; assay: Test A: wheat leaf blotch, preventive spray on wheat seedlings; type: in vivo; conditions: 50 ppm, 100 = 100% disease control, 0 = no control
measured-quantity: Test A disease control rating (%)

In [3]: df
Out[3]:
                         structure_as_smiles     target_system  unit_of_measure  endpoint_value
 0  Cc1nn(C)c(Nc2c(F)cccc2[N+](=O)[O-])c1-c1ccc(Cl)cc1Cl  Septoria tritici                %             100
 1  COc1ccc(-c2c(C)nn(C)c2Nc2c(F)cc(F)cc2[N+](=O)[O-])c(Cl)c1  Septoria tritici                %             100
 2  COc1ccc(-c2c(C)nn(C)c2Nc2c(Cl)cc(C)cc2[N+](=O)[O-])c(Cl)c1  Septoria tritici                %             100
 3  Cc1nn(C)c(Nc2c(Cl)cc(F)cc2[N+](=O)[O-])c1-c1ccc(F)cc1F  Septoria tritici                %             100
 4  Cc1nn(C)c(Nc2c(Cl)cc(F)cc2[N+](=O)[O-])c1-c1c(F)cccc1Cl  Septoria tritici                %             100
 5  Cc1nn(C)c(Nc2c(Cl)cc(F)cc2[N+](=O)[O-])c1-c1c(F)cccc1F  Septoria tritici                %             100
 6  Cc1nn(C)c(Nc2ccc(OC(F)F)cc2[N+](=O)[O-])c1-c1ccc(F)cc1Cl  Septoria tritici                %              91
 7  Cc1nn(C)c(Nc2c(Cl)cc(Br)cc2[N+](=O)[O-])c1-c1ccc(F)cc1Cl  Septoria tritici                %              99
 8  Cc1cccc([N+](=O)[O-])c1Nc1c(-c2c(F)cc(F)cc2Br)c(C)nn1C  Septoria tritici                %             100
 9  COc1ccc(-c2c(C)nn(C)c2Nc2ccc(OC)cc2[N+](=O)[O-])c(Cl)c1  Septoria tritici                %              99
10  Cc1cc(F)c(Nc2c(-c3ccc(F)cc3Br)c(C)nn2C)c([N+](=O)[O-])c1  Septoria tritici                %             100
11  Cc1cccc([N+](=O)[O-])c1Nc1c(-c2ccc(F)cc2Cl)c(C)nn1C  Septoria tritici                %              99
12  Cc1cc(Cl)c(Nc2c(-c3ccc(C#N)cc3Cl)c(C)nn2C)c([N+](=O)[O-])c1  Septoria tritici                %              91
13  COc1ccc(Nc2c(-c3ccc(F)cc3Cl)c(C)nn2C)c([N+](=O)[O-])c1  Septoria tritici                %             100
14  CCc1nn(C)c(Nc2ccc(C)cc2[N+](=O)[O-])c1-c1ccc(F)cc1Cl  Septoria tritici                %             100
15  Cc1nn(C)c(Nc2cc(Cl)ccc2[N+](=O)[O-])c1-c1ccc(F)cc1Cl  Septoria tritici                %              85
